biological target: EGFR L861R (Homo sapiens, UniProt P00533, L861R); construct: expressed in transfected cells; host or cells: Ba/F3 cells, retroviral pBabe-Puro vector (vector made by GeneScript from EGFR WT); assay: Ba/F3 drug screening, Cell Titer Glo, IC50 Mut/WT; type: cell-based; conditions: Classical-Like, 72 hours
Label t when ratio of IC50 for cells with mutant EGFR to IC50 for cells with wildtype EGFR (Mut/WT) is at or above 0.04; otherwise label f.

Answered cases to consult:
COc1cc2ncnc(Nc3ccc(F)c(Cl)c3)c2cc1NC(=O)/C=C/CN1CCCCC1	f
C=CC(=O)N1CC[C@@H](Oc2nc(Nc3ccc(N4CCC(N5CCN(C)CC5)CC4)cc3)c(C(N)=O)nc2CC)C1	t
C=CC(=O)Nc1cccc(Oc2nc(Nc3ccc(N4CCN(C)CC4)cc3)nc3ccsc23)c1	f
C=CC(=O)Nc1cc(Nc2ncc(C(=O)OC(C)C)c(-c3cn(C)c4ccccc34)n2)c(OC)cc1N(C)CCN(C)C	t
C=CC(=O)Nc1cc(Nc2nccc(-n3cc(CN(C)C)c(-c4ccccc4)n3)n2)c(OC)cc1N1CCOCC1	t
C=CC(=O)N[C@H]1C=C(C)c2c(-c3cnc4ccccc4c3)c3c(N)ncnc3n2C1	f

Kindly review the next compound as well.
Is the recorded value of ratio of IC50 for cells with mutant EGFR to IC50 for cells with wildtype EGFR (Mut/WT) equal to or greater than 0.04 for this compound? "COc1cc2ncnc(Nc3cccc(Cl)c3F)c2cc1OC(=O)N1CCN(C)C[C@H]1C" f

* * *

Task for the reader: assign each of the following compounds its reported ratio of IC50 for cells with mutant EGFR to IC50 for cells with wildtype EGFR (Mut/WT).
target: EGFR Ex19del T790M (Homo sapiens, UniProt P00533, DEL746-750/T790M); construct: expressed in transfected cells; host or cells: Ba/F3; test: Ba/F3 drug screening, Cell Titer Glo, IC50 Mut/WT; format: cell-based; conditions: T790M-like-3S, 72 hours
Give bare numbers.

Look over these answered cases.
Cc1cc(C(=O)Nc2nc3cccc(Cl)c3n2[C@@H]2CCCCN(C(=O)/C=C/CN(C)C)C2)ccn1 [Nazartinib]	0.01265
COc1cc2ncnc(Nc3cccc(Cl)c3F)c2cc1OC(=O)N1CCN(C)C[C@H]1C [AZD3759]	12.68

Name the reported ratio of IC50 for cells with mutant EGFR to IC50 for cells with wildtype EGFR (Mut/WT) value associated with the compound C=CC(=O)Nc1cccc(Oc2nc(Nc3ccc(N4CCN(C)CC4)cc3)nc3ccsc23)c1 [Olmutinib] 0.0004059

* * *

target: EGFR A767insASV (Homo sapiens, UniProt P00533, DUP767-769); construct: expressed in transfected cells; host or cells: Ba/F3 cells, retroviral pBabe-Puro vector; experiment: Ba/F3 drug screening, Cell Titer Glo, IC50 Mut/WT; type: cell-based; conditions: Ex20, 72 hours
MEASURED ENDPOINT: ratio of IC50 for cells with mutant EGFR to IC50 for cells with wildtype EGFR (Mut/WT)
Give bare numbers.

Look over these answered cases.
COc1cc2ncnc(Nc3ccc(F)c(Cl)c3)c2cc1NC(=O)/C=C/CN1CCCCC1	3.057
C=CC(=O)Nc1cccc(Oc2nc(Nc3ccc(N4CCN(C)CC4)cc3)nc3ccsc23)c1	0.6792
C=CC(=O)N[C@H]1C=C(C)c2c(-c3cnc4ccccc4c3)c3c(N)ncnc3n2C1	0.1359

Hi there! I need ratio of IC50 for cells with mutant EGFR to IC50 for cells with wildtype EGFR (Mut/WT) for each item below, if you can.
1. CN(C)C/C=C/C(=O)Nc1cc2c(Nc3ccc(Cl)c(Br)c3)ncnc2cn1
2. Cc1cc(C(=O)Nc2nc3cccc(Cl)c3n2[C@@H]2CCCCN(C(=O)/C=C/CN(C)C)C2)ccn1
3. C=CC(=O)Nc1cc(Nc2nccc(-c3c[nH]c4ccccc34)n2)c(OC)cc1N(C)CCN(C)C

[0.9945, 0.6382, 4.661]

* * *

Task for the reader: assign each of the following compounds its reported ratio of IC50 for cells with mutant EGFR to IC50 for cells with wildtype EGFR (Mut/WT).
biological target: EGFR L858R S784F (Homo sapiens, UniProt P00533, L858R/S784F); construct: expressed in transfected cells; host or cells: Ba/F3 cells, retroviral pBabe-Puro vector (vector made by GeneScript from EGFR L858R); experiment: Ba/F3 drug screening, Cell Titer Glo, IC50 Mut/WT; format: cell-based; conditions: Classical-Like, 72 hours
One number for each entry.

CNC(=O)CN1CCC(Oc2cc3c(Nc4cccc(Cl)c4F)ncnc3cc2OC)CC1	0.06664
CN(C)C/C=C/C(=O)Nc1cc2c(Nc3ccc(Cl)c(Br)c3)ncnc2cn1	0.001643
C=CC(=O)Nc1cccc(Oc2nc(Nc3ccc(N4CCN(C)CC4)cc3)nc3ccsc23)c1	0.04569
C=CC(=O)N[C@H]1C=C(C)c2c(-c3cnc4ccccc4c3)c3c(N)ncnc3n2C1	0.001423
C=CC(=O)Nc1cc(Nc2nccc(-n3cc(CN(C)C)c(-c4ccccc4)n3)n2)c(OC)cc1N1CCOCC1	0.02456

Attention now turns to another entry.
Name the reported ratio of IC50 for cells with mutant EGFR to IC50 for cells with wildtype EGFR (Mut/WT) value associated with the compound "COc1cc2ncnc(Nc3ccc(F)c(Cl)c3)c2cc1NC(=O)/C=C/CN1CCCCC1" 0.06448
